Recorded Musca domestica Rsp strain w/PB LD50, one value per entry.
# Tested on: Musca domestica Rsp strain
# METHOD_DESCRIPTION: Insect toxicity, Musca domestica Rsp strain, DDT-resistant
# Assay type: in vivo
# CONDITION_DETAILS: with PB
PARAMETER: Musca domestica Rsp strain w/PB LD50 (µg/g)

1) CCCc1ccc(C(c2ccc(C)cc2)C(C)Cl)cc1 (stereo not drawn)    85
2) CCCOc1ccc(C(c2ccc(OCCC)cc2)C(C)Cl)cc1 (stereo not drawn)    42
3) CCOc1ccc(C(c2ccc(OCC)cc2)C(C)C)cc1    12.5
4) CCOc1ccc(C(c2ccc(C)cc2)C(C)Cl)cc1 (stereo not drawn)    14
5) CCOc1ccc(C(c2ccc(OCC)cc2)C(C)(Cl)Cl)cc1    23.5
6) CCCOc1ccc(C(c2ccc(OCC)cc2)C(C)Cl)cc1 (stereo not drawn)    5.5

###

# System: Musca domestica (NAIDM strain)
# METHOD_DESCRIPTION: Insect toxicity, Musca domestica NAIDM strain
# Type: in vivo
# CONDITION_DETAILS: with PB
PARAMETER: Musca domestica NAIDM (w/PB) LD50 (µg/g)

1. CCCOc1ccc(C(c2ccc(OCCC)cc2)C(C)Cl)cc1 (centres unmarked) [VII]    10
2. CCOc1ccc(C(c2ccc(OCC)cc2)C(C)(Cl)Cl)cc1 [Example XIX]    7
3. CCCOc1ccc(C(c2ccc(OCC)cc2)C(C)Cl)cc1 (centres unmarked) [VI]    3.2
4. Cc1ccc(C(c2ccc(C)cc2)C(C)Cl)cc1 (centres unmarked) [Example II]    24.5
5. CCCOc1ccc(C(c2ccc(C)cc2)C(C)C)cc1 (centres unmarked) [XV]    100
6. CCCc1ccc(C(c2ccc(C)cc2)C(C)Cl)cc1 (centres unmarked) [VIII]    29
7. CCCc1ccc(C(c2ccc(CCC)cc2)C(C)Cl)cc1 (centres unmarked) [IX]    45
8. COc1ccc(C(c2ccc(OC)cc2)C(C)(Cl)Cl)cc1 [XVIII]    8
9. CCCCOc1ccc(C(c2ccc(C)cc2)C(C)C)cc1 (centres unmarked) [XVI]    240
10. CCOc1ccc(C(c2ccc(C)cc2)C(C)Cl)cc1 (centres unmarked) [Example III]    10
11. CCCOc1ccc(C(c2ccc(OCCC)cc2)C(C)C)cc1 [XIII]    21.5
